Entries annotated with measured AUC(0-t)
test: In vivo dose escalation, rat (oral); details: Dose 10 mg/Kg
measure: AUC(0-t)

INSERT INTO assay_data (smiles_data, observed_measurement) VALUES
  ('Cc1cc(-c2cnc3cc(-c4ccc(N5CCNCC5)cc4)ccn23)c2cc(F)cc(F)c2n1', '3130 ng·h/mL'),
  ('Cc1cc(-c2cnc3cc(-c4ccc(N5CCNCC5)cc4)ccn23)c2ccccc2n1', '3960 ng·h/mL'),
  ('Cc1cc(-c2cnc3cc(-c4ccc(N5CCNCC5)cc4)ccn23)c2cc(F)ccc2n1', '6610 ng·h/mL');

----------
Entries annotated with measured AUC(0-t)
test: In vivo dose escalation, rat (oral); conditions: Dose 3 mg/Kg
measure: AUC(0-t) (ng·h/mL)

INSERT INTO assay_data (smiles_data, measure, unit_spec, observed_measurement) VALUES
  ('Cc1cc(-c2cnc3cc(-c4ccc(N5CCNCC5)cc4)ccn23)c2cc(F)ccc2n1', 'AUC(0-t)', 'ng·h/mL', 1640),
  ('Cc1cc(-c2cnc3cc(-c4ccc(N5CCNCC5)cc4)ccn23)c2cc(F)cc(F)c2n1', 'AUC(0-t)', 'ng·h/mL', 905),
  ('Cc1cc(-c2cnc3cc(-c4ccc(N5CCNCC5)cc4)ccn23)c2ccccc2n1', 'AUC(0-t)', 'ng·h/mL', 1240);

----------
Entries annotated with measured C0
test: In vivo discrete IV PK (0.5 mg/kg) crossover, rat; conditions: IV 0.5 mg/kg
measure: C0 (ng/mL)

INSERT INTO results (smiles_data, observed_measurement) VALUES
  ('Cc1cc(-c2cnc3cc(-c4ccc(N5CCNCC5)cc4)ccn23)c2ccccc2n1', 143),
  ('Cc1cc(-c2cnc3cc(-c4ccc(N5CCNCC5)cc4)ccn23)c2cc(F)cc(F)c2n1', 93.8),
  ('Cc1cc(-c2cnc3cc(-c4ccc(N5CCNCC5)cc4)ccn23)c2cc(F)ccc2n1', 151);

----------
assay: In vivo dose escalation, rat (oral); conditions: Dose 30 mg/Kg
measure: Cmax

INSERT INTO results (smiles_data, observed_measurement) VALUES
  ('Cc1cc(-c2cnc3cc(-c4ccc(N5CCNCC5)cc4)ccn23)c2cc(F)ccc2n1', '2490 ng/mL');

----------
Entries annotated with measured half-life
experiment: in vitro; settings: rat, hepatocytes
measure: half-life (h)

INSERT INTO results (smiles_data, observed_measurement) VALUES
  ('Cc1cc(-c2cnc3cc(-c4ccc(N5CCNCC5)cc4)ccn23)c2cc(F)ccc2n1', 5.73),
  ('Cc1cc(-c2cnc3cc(-c4ccc(N5CCNCC5)cc4)ccn23)c2cc(F)cc(F)c2n1', 8.85),
  ('Cc1cc(-c2cnc3cc(-c4ccc(N5CCNCC5)cc4)ccn23)c2ccccc2n1', 7.39);

----------
assay: In vivo dose escalation, rat (oral); conditions: Dose 30 mg/Kg
Entries annotated with measured half-life
measure: half-life (h)

INSERT INTO results (compound, observed_measurement) VALUES
  ('Cc1cc(-c2cnc3cc(-c4ccc(N5CCNCC5)cc4)ccn23)c2ccccc2n1 [Compound 25]', 6.1),
  ('Cc1cc(-c2cnc3cc(-c4ccc(N5CCNCC5)cc4)ccn23)c2cc(F)ccc2n1 [Compound 20]', 6.3);

----------
assay: In vivo discrete IV PK (0.5 mg/kg) crossover, rat; conditions: IV 0.5 mg/kg
measure: Vd (L/kg)

INSERT INTO measurements (molecule, observed_measurement) VALUES
  ('Cc1cc(-c2cnc3cc(-c4ccc(N5CCNCC5)cc4)ccn23)c2ccccc2n1 [Compound 25]', 8.8),
  ('Cc1cc(-c2cnc3cc(-c4ccc(N5CCNCC5)cc4)ccn23)c2cc(F)ccc2n1 [Compound 20]', 5.8);
